- ASSAY_PROTOCOL: Inhibition of chymotrypsin (unknown origin)
- RUN_CONDITIONS: Homo sapiens
MEASURE_NAME: log1/Ki
Give your answer as a number; write no unit.

Query: // lookup log1/Ki for `O=CNc1ccc([N+](=O)[O-])cc1`
Result: 2.42

Query: // query: O=C(O)C(Cc1ccc(F)cc1F)NC(=O)C(F)(F)F (stereo not drawn)
Result: 2.35

Query: Repeat with `O=CNc1ccc(Cl)cc1`
Result: 3.4

Query: Cool, now `CCC(=O)NCc1ccccc1`
Result: 2.2

Query: What would you report for `NC(=O)c1ccnc2ccccc12` ?
Result: 2.08

Query: Try this molecule next: `CC(=O)c1ccc(NC=O)cc1`
Result: 1.72

Query: For `O=C(CCl)NCc1ccccc1` then?
Result: 2.31

Query: Next molecule: `COc1cccc(NC=O)c1`
Result: 2.17

Query: Ok, now `NC(=O)c1ccccc1`
Result: 2

Query: Entry `Cc1ccc(NC=O)cc1` please
Result: 2.52

Query: And then `CC(=O)NCCc1ccccc1` , what is it?
Result: 1.94

Query: Okay, and O=C(O)C(Cc1ccccc1)NC(=O)C(F)(F)F (stereo not drawn) ?
Result: 2.1

Query: Similarly, `NC(=O)CNC(=O)c1ccccc1` ?
Result: 1.9

Query: Would you mind doing `CC(=O)NCc1ccccc1` as well?
Result: 2.12

Query: # iterate: O=C(O)C(Cc1ccc(Br)cc1)NC(=O)C(F)(F)F (stereo not drawn)
Result: 3

Query: Could you do the same for `CC(=O)NCCc1c[nH]c2ccccc12` , please?
Result: 2.74

Query: Item: O=C(O)C(Cc1cccc(F)c1)NC(=O)C(F)(F)F (stereo not drawn)
Result: 2.57

Query: Same read-out for `O=C(NCCc1c[nH]c2ccccc12)C(F)(F)F` ?
Result: 2.92

Query: How about this molecule: `CC(=O)Nc1ccccc1`
Result: 1.89

Query: Consider next the molecule `O=C(CCl)NCCc1ccccc1` in the same way.
Result: 2

Query: Lookup `NC(=O)CCCc1ccccc1`
Result: 1.92

Query: Repeat for the following molecule: `NC(=O)CCc1c[nH]c2ccccc12`
Result: 2.64

Query: What about `COc1ccc(NC=O)cc1` ?
Result: 2.06

Query: What do we get for Cc1cccc(CC(NC(=O)C(F)(F)F)C(=O)O)c1 (stereo not drawn) ?
Result: 2.35

Query: Repeat with Cc1ccc(CC(NC(=O)C(F)(F)F)C(=O)O)cc1 (stereo not drawn)
Result: 2.82

Query: Cool, now `COC(=O)c1nc2ccccc2[nH]1`
Result: 2.25

Query: Repeat for the following molecule: `O=CNc1ccccc1`
Result: 2.4

Query: Same for `CCC(=O)Nc1ccccc1`
Result: 2.18

Query: How about this molecule: `NC(=O)Cc1ccccc1`
Result: 1.82

Query: Now the molecule `N#Cc1ccc(NC=O)cc1`
Result: 1.9

Query: Also `NC(=O)CCc1ccccc1` ?
Result: 2.15

Query: Try this molecule too: O=C(O)C(Cc1ccc(F)cc1)NC(=O)C(F)(F)F (stereo not drawn)
Result: 2.89

Query: Would you mind doing `O=CNc1cccc(Cl)c1` as well?
Result: 3.1

All values here come from ChEMBL document CHEMBL3243920.
